Source: ChEMBL document CHEMBL5154891

test: Lipophilicity, log D of the compound at pH 7.4; details: buffer, pH 7.4, logD
MEASURE: logD
Numbers only.

List the reported logD of each compound below.
1. C=CC(=O)N1CCN2c3ncnc4c(F)c(-c5c(O)cccc5F)c(Cl)c(c34)OC[C@@H]2C1
2. C=CC(=O)N1CCN2c3ncnc4c(F)c(-c5c(O)cccc5F)c(Cl)c(c34)OCC[C@H]2C1

2.9
2.7

List the reported logD of each compound below.
1. C=CC(=O)N1C[C@H]2COc3c(Cl)c(-c4c(O)cccc4F)c(F)c4ncnc(c34)N2C[C@H]1C (stereo in doubt; 30)
2. C=CC(=O)N1CCN2c3ncnc4cc(-c5c(C)ccc6[nH]ncc56)c(Cl)c(c34)OCC[C@@H]2C1 (single isomer, unassigned; atropisomer 1)
3. C=CC(=O)N1C[C@@H]2CCOc3c(Cl)c(-c4c(O)cccc4F)c(F)c4ncnc(c34)N2C[C@@H]1C
4. C=CC(=O)N1CCN2c3ncnc4cc(-c5c(C)ccc6[nH]ncc56)c(Cl)c(c34)OCC[C@H]2C1 (single isomer, unassigned; atropisomer 2)
5. C=CC(=O)N1CCN(c2ncnc3cc(-c4c(C)ccc5[nH]ncc45)c(Cl)cc23)CC1

1: 3.2; 2: 3.4; 3: 3.2; 4: 3.4; 5: 3.5

response.value for `C=CC(=O)N1C[C@H]2COc3c(Cl)c(-c4c(O)cccc4F)c(F)c4ncnc(c34)N2C[C@@H]1C` (field: logD) = 3.4
